testName: yeast display, Sf9 membrane polyspecificity reagent, FACS + sequencing; frameworks hold sequencing errors
parameter: polyreactivity (PSR sort gate)

QVQLVESGGGLVQAGGSLRLSCAASGLTFYLYAMGWYRQAPGKERELVAAITSGGSTYYADSVKGRFTISRDNAKNTVYLQMNSLKPEDTAVYYCNKLTYGRVWDHHYDYWGQVTQVTVSS; low polyreactivity
QVQLVESGGGLVQAGRSLRLSCAASGRIFYGYAMGWYRQAPGRERELVAANTYIGGTYYADSVKGRFTISRDNAKNTVYLQMKSLKPEDTAVYYCATEPFYTYGYYTYPYWYDYWGQATQVTVSS; low polyreactivity
QVQLVESGGGLVQAGGSLRLSCAASGSILTHYAMGWYRQAPGKERELVAAITWRGGSTYYADSVKGRFTISRDNAKNTVYLQMNSLKPEDSAVYYCNADYFGGGDYWGQGTQVTVSS; low polyreactivity
QVQLVESGGGLVQAGGSLRLSCAASGFTFSRYAMGWYRQAPGKERELVAAITSRGGSTYYADSVKGRFTISRDNAKNTVYLQMNSLKPEDTAVYYCAARGWYATWLYYYWGQGTQVTVSS; high polyreactivity
QVQLVESGGGLVQAGGSLRLSCAASGFIFVKNAMGWYRQAPGKERELVAVISTRGGRTYYADSVKGRFTISRDNAKNTVYLQMNSLKPEDTAVYYCAALYWYSRSSWDYDYWGQGTQVTVSS; high polyreactivity
QVQLVESGGGLVQAGGSLRLSCAASGRTFRINAMGCYRQAPGKERELVAAITSGGRTNYADSVKGRFTISRDNAKNTVYLQMNSLKPEDTAVYYCAAERTPSYRAYDYWGQGTQVTVSS; low polyreactivity
QVQLVESGGGLVQAGGSLRLSCAASGRIFRYYAMGWYRQAPGKERELVAAITSGGNTYYADSVKGRFTISRDNAKNTVYLQMNSLKPVDTAVYYCADGRNLYHFYYWGQGTQVTVSS; high polyreactivity

* * *

testName: yeast display, Sf9 membrane polyspecificity reagent, FACS + sequencing; frameworks hold sequencing errors
parameter: polyreactivity (PSR sort gate)

QVQLVESGGGLVQAGGSLRLSCAASGGIFYSYAMGWYRQAPGKEREFVAAIRRSGGRTYYADSVKGRFTISRDNAKNTVYLQMNSLKPEDTAVYYCAADGWYSGGHDYWGQGTQVTVSS; high polyreactivity
QVHLVESGGGLVQAGGRLRLSCAASGFIFWSNAMRWYRQAPGKERELVAAITWNGGDTYYADSVKGRFTISRDNAKNTVYLQMNSLKPEDTAVFYCAAVPSRRARYDYWGQGTQVTVSS; low polyreactivity
QDQLVESGGGLVQAGGSLRLSCAASGSIFWGYDMGWYRQAPGKEMELVARISYSGGSTSYADSVKGRFTISRDNAKNTVYLQMNSLKPEDTAVYYCAADEGGFWWTYPYDSWGQGTQVTVSS; low polyreactivity
QVQLVESGGGLVQAGGSLRLSCAASGIFGYNARGWYRQAPGKERELVAAITSSGTSTYYADSVKGRFTISRDNAKNTVYLQMNSLKPEDTAVYYCAALHSGTWTGYGYWGQGTQVTVSS; low polyreactivity
QVQLVESWRGLVQAGGSLRLSCAASGNTFVYNAMRWYRQAPGKERELVAGITKTGGRTYYADSVKGRFTISRDIAKNTVYLEMNSLKPEDTAVYYCAARPWNDGYYVGRFHMVYWGQGTQVTVSS; low polyreactivity
QVQLVESGGGLVQAGASLRLSCAASGLTFEYYTMGWYRQAPGKERELVAAITSSGGSTYYADSVKGRFTISRDNAKNTVYLQMNSLKPEDTAVYYCNAYWTYEFPSYDYWGQGTQVTVSS; low polyreactivity
QVQLVESGGGLVQAGGSLRLSCAASGNTLGYNAMGWYRKAPGKERELVATIRGSGGITYYADSVKGRFTISRDNAKNTVYLQMNSLKPEDTAVDYCAKVYKYRVKGDHWGQGTQVTVSS; low polyreactivity
QVQLVESGGGLVQAGGSLRLSCAASGITFRVYAMGWYRPAPGKERELVAAITSSGGSTYYADSVKGRFTISRDYAKNTVYLQMNSLKPEDTAVYYCNKVTYGYAYWRYDGYDYWGQGTQVTVSS; low polyreactivity
QVQLVESGGGLVQAGGSLRLSCAASGYTFGSNAMGWYRQAPGKERELVADIDWSSGNTYYADSVKGRFTISRDNAKNTVYVQMNSLKPEDTAVYYCAAELLIYYSWYWYDYWGQGTQVTVSS; high polyreactivity
QFQLQESCCGLVQAGGSLRLSCAASGTISYAPQMGWYRQAPGKERELVAGITIGGTTYYADSVKGRFTISRDNAKNTVYLQMNSLSPGDTAVYYCAAHSEQYTPFYYWGQGTQVTVSS; low polyreactivity
QVQLVESGGGLVQAGVSLRLSCAASGSTFVVNAMGWYRQAPGKERELVAAITQSGGSTFYADSVKGRFTISRDNAKNTVYLQMNSLKPEDTAVYYWGQGTQVTVSS; low polyreactivity
QVQLVESGGGLFQAGGSLRLSCAASGSIFGKYTMGWYRQAPGKERELVAGITYRAGSTYYADSVKGRFTISRDNAKNTVYLQMNSLKPEDTAVYYCAARFYFRWYYYGSYANYWGQGTQVTVSS; high polyreactivity
QVQLVESGGGLVQAGGSLRLSCAASGRTFKWYPMGWYRQATGKERELVAGITSTGTTSYADSVKGRFTISRDNAKNTVYLQMNSLKPEDTAVYYCNTYYRWWKYDYWGQGTQVTVSS; high polyreactivity
QVQLVESGGGLVQAGGSLRLSCAASGFTFTAYAMGWYRQAPGKERELVAAISSGGSTYYADSVKGRFTISRDNAKNTVYLQMNSLKPEDTAVYYCAAVGVYTVKREYWGQGTQLTVSS; low polyreactivity

* * *

testName: yeast display, Sf9 membrane polyspecificity reagent, FACS + sequencing; frameworks hold sequencing errors
parameter: polyreactivity (PSR sort gate)

QVQLVESGGGLVQAGGSLRLSCAASGSIFWYYAMGWYRQAPGKERELVAAISISGSTYYADSVKGRFTISRDNAKNTVYLQMNSLKPEDTAVYYCAARKFFWRSNYDYWGQGTQVTVSS; low polyreactivity
QVQLVESGGGLVQAGGSLRLICDASGRTFGPYVMRLYRQAPGKERELVASISSADSRYYADSVKGRFTISRDNAKNTVYLQMNSLKPEDTAVYYCAAPSVGYYDPTDFDYWGQGTQVTVSS; low polyreactivity
QVQLVESGGGLVQAGGSLRLSCAGSGSTFYFYVMGWYRQAPGKDRELVAAITWSGGRTSYADSVKGRFTISRDNAKNTVYLQMNSLKPEDTAVYYCNTDGYPRLYIYDYWGQGTQVTVSS; low polyreactivity

* * *

testName: yeast display, Sf9 membrane polyspecificity reagent, FACS + sequencing; frameworks hold sequencing errors
parameter: polyreactivity (PSR sort gate)

QDQLVESGVGLVQAGVSLRLSCAASGSIFESYAMGWSSQAPGKESELVAAIDYDDGSTYYADSVKGRFTISRDNAKNTVYLQMNSLKPEDTAVYYCAAKPTTYYGISDYWGQGTQVTVAS; high polyreactivity
QVQLVESGGGLVQAGGSLRLSCAASGRIFRRNTMGWYRQAPGKERELVATISKNGGSTYYADSVKGRFTISRDNAKNTVYLQMNSLKPADTAVYYCNAPDPSSTSYFPYELGYWGQGTQVTVSS; high polyreactivity
QVQLGESGGGLVQAGGSLRLSCAASGITFTHYVMGLYRQAPGKERELVAAISTSGGRTYYADSVKGRFTISRDHAKNSVYLQMNSLKPEDTAVYYCAAVSRAPGLRYDYWGQGTQVTVSS; high polyreactivity
QVQLVESGGGLVQAGGSLRLSCAASGSTFGTYAMGWYRQAPGKERELVAAINTSGGSTTYADSVKGRFTISRDNAKNTVYLQMNSLKPEDTAVYYCAKDTTGDAYSEYDYWGQGTQVTVSS; low polyreactivity
QVQLVESGGGLVQAGGSLRLSCAASGFTFFINGMGWYRQAPGKERELVAAIRSSGASTYDADSVKGRFTISRDNAKNTVYLQMNSLQPEDTAVYYCAVPLGAVGGPVDYWGQGTQVTVSS; low polyreactivity

* * *

testName: yeast display, Sf9 membrane polyspecificity reagent, FACS + sequencing; frameworks hold sequencing errors
parameter: polyreactivity (PSR sort gate)

QVQLVESGGGLVQAGGSLRLICAASGRTFYRYAMGWYRQAPGKDRELVATISRSGGSTYYADSVKGRFTISRDNAKNTVYLQINSLKPEDTAVYYCAADIPSYYWWRAYDYWGQGTQVTVSS; low polyreactivity
QVQLVESGGGLVQAGGSLRLICAASGSTFRYYAMGWYRQAPGKEREFVAAITKGGSRTSYADSVKGRFTISRDNAKNTVYLQMNSLKPEDTAVYYCATAYYGGASQRNYGYWGQGTQVTVSS; high polyreactivity
QVQLVESGGGLVQAGGSLRLSCAASGSILWHNAKGWYRQAPGKEREFVAAISARGTRTYYADSVKGRFTISRDNAKNSVYLQMNSLKPEDTAVYYCAARYWDDRARAEDYWGQGTQVTVSS; high polyreactivity
QVQLVESGGGLVQSGGSLRLSCAASGRTFKYNAMGWYRQAPGKERELVAVIRYSGGTTYYADSVKGRFTISRDNAKNTVYLQMNSLKPEDTAVYYCAADSWSRSVNYYYWGQGTQVTVSS; low polyreactivity
QVQHVESGGVLVQAGGSLRLSCAASGSIFYPNAMGWYRQAPGKERELVAAISSSGGTNYADSVKGRFTISRDNAKNTVYLQMNSLKPEDTAVYYCNARDKVRYRFSRMDYWGQGTQVTVSS; low polyreactivity
QVQLEDSGRGLFQAGGSLRLSCAASGSNFAHYAMGWYIQAQGKERELVARFSWSGGSTYYADSVKGRFTISRDNAKNTVYLQMNSLKPEDTAVYYCAADHLYWGLEYEPWGQGTQVTVSS; low polyreactivity
QVQLVESGGGLVQAGCSRRFSCAASGFTFYKNAMGWYRQAPGKERELVAAITSSGGTTYYADSVKGRFTISRDNAKNTVYLQMNSLNPEDTAVYYCAARASRPRFGYWGQGTQVTVSS; high polyreactivity
QVQLVESGGGLVQAGGSLRLSCAASGRISPKNAMGWYRQAPGKERELVATIRKIGGRTYYADSVKGRFTISRDNAKYTVYLQMNSLKPEDTAVYYCATDFAPSYYPDRFDYWGQGTQVTVSS; low polyreactivity
